Assay: in vitro
Conditions: dog, CC50, run with Influenza A H3N2 Perth/16/2009, last run; Neutral Red
Bridge positions count the residues as written; N and C are the ends. Square brackets hold non-standard residues; d marks the D form. Peptide text beside a SMILES is read from it. R8 = C=CCCCCCC[C@@](C)(N)C(=O)O; S5 = C=CCCC[C@](C)(N)C(=O)O; Nle = CCCC[C@H](N)C(=O)O
Listing of recorded CC50 by entry.
ASSAY_METRIC: CC50

[[record]]
molecule = "CCCC[C@H](NC(C)=O)C(=O)N[C@@H](CC(=O)O)C(=O)N[C@H](C(=O)N[C@@H](CC(N)=O)C(=O)N[C@]1(C)CCCCCCC=CCCC[C@@](C)(C(=O)N[C@@H](C)C(=O)N[C@@H](C)C(=O)N[C@@H](CCC(N)=O)C(N)=O)NC(=O)[C@H](C)NC(=O)[C@H](CC(C)C)NC(=O)[C@H](Cc2ccccc2)NC(=O)[C@H](CC(C)C)NC(=O)[C@H](CC(C)C)NC(=O)[C@H]([C@@H](C)O)NC1=O)C(C)C [SP-18] (Ac-[Nle]DVN[R8]TLLFLA[S5]AAQ-NH2; staple 5-12)"
result = "> 100 µM"

[[record]]
molecule = "CCCC[C@H](NC(C)=O)C(=O)N[C@@H](CC(=O)O)C(=O)N[C@H](C(=O)N[C@@H](CC(N)=O)C(=O)N[C@]1(C)CCCCCCC=CCCC[C@@](C)(C(=O)N[C@@H](C)C(=O)N[C@@H](C)C(=O)N[C@@H](C)C(=O)N[C@@H](C)C(=O)N[C@@H](C)C(N)=O)NC(=O)[C@H](C)NC(=O)[C@H](CC(C)C)NC(=O)[C@H](Cc2ccccc2)NC(=O)[C@H](CC(C)C)NC(=O)[C@H](CC(C)C)NC(=O)[C@H]([C@@H](C)O)NC1=O)C(C)C [SP-25] (Ac-[Nle]DVN[R8]TLLFLA[S5]AAAAA-NH2; staple 5-12)"
result = "> 100 µM"

[[record]]
molecule = "CCCC[C@H](NC(C)=O)C(=O)N[C@@H](CC(=O)O)C(=O)N[C@H](C(=O)N[C@@H](CC(N)=O)C(=O)N[C@]1(C)CCCCCCC=CCCC[C@@](C)(C(=O)N[C@@H](CCC(N)=O)C(=O)N[C@@H](C)C(=O)N[C@@H](C)C(=O)N[C@@H](C)C(=O)N[C@@H](C)C(N)=O)NC(=O)[C@H](C)NC(=O)[C@H](CC(C)C)NC(=O)[C@H](Cc2ccccc2)NC(=O)[C@H](CC(C)C)NC(=O)[C@H](CC(C)C)NC(=O)[C@H]([C@@H](C)O)NC1=O)C(C)C [SP-27] (Ac-[Nle]DVN[R8]TLLFLA[S5]QAAAA-NH2; staple 5-12)"
result = "> 100 µM"

